assay: NCI Yeast Anticancer Drug Screen. Data for the rad50 strain (AID 155); details: S. cerevisiae rad50 strain growth inhibition; at 50.0 µM (retest, dose inferred, filed as 5.0); stronger effect = higher value
Compounds without any hit were thinned out: in the full panel of roughly 79,000, 15% have a hit.
Ranges used to classify growth inhibition: one (below 20%), two (20% to below 90%), three (90% or more)

1. O=C(/C(=C/c1ccc(Cl)cc1)c1ccccc1)c1ccc(O)cc1 :: three
2. O=C(Nc1ccccc1[N+](=O)[O-])/C(=N/Nc1cccc(Cl)c1)c1c(O)c2ccccc2oc1=O :: two
3. COC1=CC(=O)C(O)=C/C1=C\C=C\c1ccccc1 :: three
4. C1CCC(C2=NC3CCCCC3SC2)CC1 (configuration not stated) :: three
5. C[N+](C)([O-])CCC=C1c2ccccc2CCc2ccccc21 :: two
6. O=C1OC2(CCCC2)OC1c1ccccc1 (configuration not stated) :: one
7. Nc1c(Cl)[nH]c(C(F)(F)F)nc1=S :: one
8. O=[N+]([O-])c1ccc(CN2CCN(c3nccs3)CC2)cc1 :: two
9. CCOc1ccc2nc(Cl)sc2c1 :: two
10. C1=C(c2ccccc2)CCc2ccccc21 :: one
11. COC(=O)CCN1c2ccccc2Sc2ccccc21 :: two
12. OCCc1ccc(-n2cnc3c(Nc4ccc(Cl)cc4)ncnc32)cc1 :: three
